Give measured relative CLso titer for each item. Keep answers brief.
- Test system: Candidatus Liberibacter solanacearum in potato hairy roots
- procedure.details: relative CLso titer (% of untreated control); higher = less inhibition of bacterial titer
- experimental.setup: 10 µM; 72 h
Answers are plain numbers, in %.

Worked cases, answers included:
O=c1[nH]c2ccccc2n1C1CCN(CCCC(c2ccc(F)cc2)c2ccc(F)cc2)CC1 | 135
CCCC(C)(COC(N)=O)COC(=O)NC(C)C (stereo unspecified) | 92.4
CC(C)C[C@H]1C(=O)N2CCC[C@H]2[C@]2(O)O[C@](NC(=O)[C@@H]3C=C4c5cccc6[nH]c(Br)c(c56)C[C@H]4N(C)C3)(C(C)C)C(=O)N12 | 76.9

Count: 3. Required value per item: relative CLso titer.
1. Cc1cc(O)ccc1Cl
2. C[C@@H]1O[C@@H](O[C@H]2C[C@@H](O)[C@]3(CO)[C@H]4[C@H](O)C[C@]5(C)[C@@H](C6=CC(=O)OC6)CC[C@]5(O)[C@@H]4CC[C@]3(O)C2)[C@H](O)[C@H](O)[C@H]1O
3. Cc1cccc(C)c1NC1=NCCCS1

Result:
1: 45.9; 2: 85.6; 3: 91.4

----------
- System: Candidatus Liberibacter solanacearum in potato hairy roots
- procedure.details: relative CLso titer (% of untreated control); higher = less inhibition of bacterial titer
- experimental.setup: 10 µM; 72 h
Rule: relative CLso titer under 90% gives f, otherwise t.

N.N.[Cl][Pt][Cl] | f
C[C@]12CC[C@H]3[C@@H](CCC4=CC(=O)CC[C@@]43C)[C@@H]1CC[C@@H]2O | t
CO[C@]12C[C@@H](COC(=O)c3cncc(Br)c3)CN(C)[C@@H]1Cc1cn(C)c3cccc2c13 | t
c1ccc2c(c1)sc1ccccc12 | t
Fc1ccc(Oc2ccnc3cc(Cl)cc(Cl)c23)cc1 | f
CN[C@@H](C)[C@@H](O)c1ccccc1 | t

Kindly review the next compound as well.
Q: Say whether Cc1ccc(O)cc1.Cc1cccc(O)c1.Cc1ccccc1O shows relative CLso titer of 90% or more.
Result: f
